So I've got a bunch of sequences here, and I need their solubility change mitosis (log2) values.
- Test system: HeLa Kyoto
- experiment: solubility change mitosis vs G1/S (difference of NP-40 vs SDS log2 ratios) (log2 ratio difference); higher = more soluble in mitosis

// below: answered sequences
sequence.data	solubility change mitosis (log2)
MNIRNARPEDLMNMQHCNLLCLPENYQMKYYFYHGLSWPQLSYIAEDENGKIVGYVLAKMEEDPDDVPHGHITSLAVKRSHRRLGLAQKLMDQASRAMIENFNAKYVSLHVRKSNRAALHLYSNTLNFQISEVEPKYYADGEDAYAMKRDLTQMADELRRHLELKEKGRHVVLGAIENKVESKGNSPPSSGEACREEKGLAAEDSGGDSKDLSEVSETTESTDVKDSSEASDSAS [NAA10]	-0.0427
MALRLLRRAARGAAAAALLRLKASLAADIPRLGYSSSSHHKYIPRRAVLYVPGNDEKKIKKIPSLNVDCAVLDCEDGVAANKKNEARLRIVKTLEDIDLGPTEKCVRVNSVSSGLAEEDLETLLQSRVLPSSLMLPKVESPEEIQWFADKFSFHLKGRKLEQPMNLIPFVETAMGLLNFKAVCEETLKVGPQVGLFLDAVVFGGEDFRASIGATSSKETLDILYARQKIVVIAKAFGLQAIDLVYIDFRDGAGLLRQSREGAAMGFTGKQVIHPNQIAVVQEQFSPSPEKIKWAEELIAAFKEHQQLGKGAFTFQGSMIDMPLLKQAQNTVTLATSIKEK [CLYBL]	0.0246
MAGNKGRGRAAYTFNIEAVGFSKGEKLPDVVLKPPPLFPDTDYKPVPLKTGEGEEYMLALKQELRETMKRMPYFIETPEERQDIERYSKRYMKVYKEEWIPDWRRLPREMMPRNKCKKAGPKPKKAKDAGKGTPLTNTEDVLKKMEELEKRGDGEKSDEENEEKEGSKEKSKEGDDDDDDDAAEQEEYDEEEQEEENDYINSYFEDGDDFGADSDDNMDEATY [POLR3G]	-0.0224

// for each sequence below, give its solubility change mitosis (log2)
1. MESGFTSKDTYLSHFNPRDYLEKYYKFGSRHSAESQILKHLLKNLFKIFCLDGVKGDLLIDIGSGPTIYQLLSACESFKEIVVTDYSDQNLQELEKWLKKEPEAFDWSPVVTYVCDLEGNRVKGPEKEEKLRQAVKQVLKCDVTQSQPLGAVPLPPADCVLSTLCLDAACPDLPTYCRALRNLGSLLKPGGFLVIMDALKSSYYMIGEQKFSSLPLGREAVEAAVKEAGYTIEWFEVISQSYSSTMANNEGLFSLVARKLSRPL [NNMT]
2. MASDSGNQGTLCTLEFAVQMTCQSCVDAVRKSLQGVAGVQDVEVHLEDQMVLVHTTLPSQEVQALLEGTGRQAVLKGMGSGQLQNLGAAVAILGGPGTVQGVVRFLQLTPERCLIEGTIDGLEPGLHGLHVHQYGDLTNNCNSCGNHFNPDGASHGGPQDSDRHRGDLGNVRADADGRAIFRMEDEQLKVWDVIGRSLIIDEGEDDLGRGGHPLSKITGNSGERLACGIIARSAGLFQNPKQICSCDGLTIWEERGRPIAGKGRKESAQPPAHL [CCS]

1: -0.0166; 2: 0.0319

----------
- Tested on: HeLa Kyoto;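 note: synchronized HeLa Kyoto cells (double thymidine block for G1/S, nocodazole release for mitosis), protein amounts in NP-40 versus SDS lysates quantified by mass spectrometry, three biological replicates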
- experiment: solubility change mitosis vs G1/S (difference of NP-40 vs SDS log2 ratios) (log2 ratio difference); higher = more soluble in mitosis
So I've got a bunch of sequences here, and I need their solubility change mitosis (log2) values.
Give bare numbers.

sequence.data	value.type	experimental.value
MEEMSGESVVSSAVPAAATRTTSFKGTSPSSKYVKLNVGGALYYTTMQTLTKQDTMLKAMFSGRMEVLTDSEGWILIDRCGKHFGTILNYLRDGAVPLPESRREIEELLAEAKYYLVQGLVEECQAALQNKDTYEPFCKVPVITSSKEEQKLIATSNKPAVKLLYNRSNNKYSYTSNSDDNMLKNIELFDKLSLRFNGRVLFIKDVIGDEICCWSFYGQGRKIAEVCCTSIVYATEKKQTKVEFPEARIYEETLNILLYEAQDGRGPDNALLEATGGAAGRSHHLDEDEERERIERVRRIHIKRPDDRAHLHQ [KCTD10]	solubility change mitosis (log2)	0.647

Now consider the entry below.
Summary for this sequence, MQPQSVLHSGYFHPLLRAWQTATTTLNASNLIYPIFVTDVPDDIQPITSLPGVARYGVKRLEEMLRPLVEEGLRCVLIFGVPSRVPKDERGSAADSEESPAIEAIHLLRKTFPNLLVACDVCLCPYTSHGHCGLLSENGAFRAEESRQRLAEVALAYAKAGCQVVAPSDMMDGRVEAIKEALMAHGLGNRVSVMSYSAKFASCFYGPFRDAAKSSPAFGDRRCYQLPPGARGLALRAVDRDVREGADMLMVKPGMPYLDIVREVKDKHPDLPLAVYHVSGEFAMLWHGAQAGAFDLKAAVLEAMTAFRRAGADIIITYYTPQLLQWLKEE [ALAD] : solubility change mitosis (log2) is -0.212
